# λ max annotations
Experiment summary: Visible absorption spectrum (λmax, ε)
Format: physicochemical
Test context: in chloroform
Could you give me the number in nm? Just the number is fine.

Output measured λ max for this item: CCCCOC(=O)c1ccccc1Nc1c(F)c(F)c2c(c1F)C(=O)c1c(O)ccc(O)c1C2=O
530

Output measured λ max for this item: COc1ccc(Nc2c(F)c3c(c(F)c2Nc2ccc(OC)cc2)C(=O)c2c(O)ccc(O)c2C3=O)cc1
649

Output measured λ max for this item: CCc1cccc(CC)c1Nc1c(F)c2c(c(F)c1Nc1c(CC)cccc1CC)C(=O)c1c(O)ccc(O)c1C2=O
657

Output measured λ max for this item: O=C1c2c(O)ccc(O)c2C(=O)c2c(F)c(Oc3ccccc3)c(Nc3c(Cl)cccc3Cl)c(F)c21
521.0

Output measured λ max for this item: CCCCCCCCOC(=O)c1cccc(Nc2c(F)c(F)c3c(c2F)C(=O)c2c(O)ccc(O)c2C3=O)c1
526

Output measured λ max for this item: O=C1c2c(O)ccc(O)c2C(=O)c2c(Sc3ccccc3)c(Sc3ccccc3)c(Sc3ccccc3)c(Sc3ccccc3)c21
495

Output measured λ max for this item: O=C(O)c1c(F)c(F)c(Sc2c(F)c3c(c(F)c2Sc2c(F)c(F)c(C(=O)O)c(F)c2F)C(=O)c2c(O)ccc(O)c2C3=O)c(F)c1F
510

Cited source for all entries: patent US5608091A
